ENDPOINT_LABEL: RI (resistance index)

Request body: readout RI (resistance index), system panel of cell lines, query COc1cc2c(c(OC)c1OC)-c1ccc(N(C)CCCCC3=C4C(C)=CC(C)=[N+]4[B-](F)(F)n4c(C)cc(C)c43)c(=O)cc1[C@@H](NC(C)=O)CC2 [CB11] . Return the value.
2.45

Request body: readout RI (resistance index), system panel of cell lines, query COc1cc2c(c(OC)c1OC)-c1ccc(N(C)C(=O)CCC3=C4C(C)=CC(C)=[N+]4[B-](F)(F)n4c(C)cc(C)c43)c(=O)cc1[C@@H](NC(C)=O)CC2 [CB12] . Return the value.
4.50

Request body: readout RI (resistance index), system panel of cell lines, query COc1cc2c(c(OC)c1OC)-c1ccc(OC)c(=O)cc1[C@@H](NC(=O)CCCC[N+](C)(C)CCCCC1=C3C(C)=CC(C)=[N+]3[B-](F)(F)n3c(C)cc(C)c31)CC2 [CB3] . Return the value.
>4.79

Request body: readout RI (resistance index), system panel of cell lines, query COc1cc(C2=C3C(C)=CC(C)=[N+]3[B-](F)(F)n3c(C)cc(C)c32)ccc1OCc1cn([C@H]2CCc3cc(OC)c(OC)c(OC)c3-c3ccc(OC)c(=O)cc32)n[n+]1C [CB9] . Return the value.
0.98

Request body: readout RI (resistance index), system panel of cell lines, query COc1cc2c(c(OC)c1OC)-c1ccc(OC)c(=O)cc1[C@@H](NC(=O)CCCCCCCCCCC1=C3C(C)=CC(C)=[N+]3[B-](F)(F)n3c(C)cc(C)c31)CC2 [CB2] . Return the value.
3.90

###

I'd appreciate it if you could supply SI (selectivity index) values for the items below.
Tested on: panel of cell lines

For COc1cc2c(c(OC)c1OC)-c1ccc(OC)c(=O)cc1[C@@H](NC(=O)CCC1=C3C(C)=CC(C)=[N+]3[B-](F)(F)n3c(C)cc(C)c31)CC2 , what is its reported SI (selectivity index)?
13.66

For COc1cc(C2=C3C(C)=CC(C)=[N+]3[B-](F)(F)n3c(C)cc(C)c32)ccc1OCc1cn([C@H]2CCc3cc(OC)c(OC)c(OC)c3-c3ccc(OC)c(=O)cc32)n[n+]1C , what is its reported SI (selectivity index)?
>3.15

For COc1cc2c(c(OC)c1OC)-c1ccc(OC)c(=O)cc1[C@@H](n1cc(CCCCCCCCC3=C4C(C)=CC(C)=[N+]4[B-](F)(F)n4c(C)cc(C)c43)[n+](C)n1)CC2 , what is its reported SI (selectivity index)?
3.28

For COc1cc2c(c(OC)c1OC)-c1ccc(NCCCCC3=C4C(C)=CC(C)=[N+]4[B-](F)(F)n4c(C)cc(C)c43)c(=O)cc1[C@@H](NC(C)=O)CC2 , what is its reported SI (selectivity index)?
>1.63

For COc1cc2c(c(OC)c1OC)-c1ccc(N(C)CCCCC3=C4C(C)=CC(C)=[N+]4[B-](F)(F)n4c(C)cc(C)c43)c(=O)cc1[C@@H](NC(C)=O)CC2 , what is its reported SI (selectivity index)?
>12.87

For COc1cc2c(c(OC)c1OC)-c1ccc(N(C)C(=O)CCC3=C4C(C)=CC(C)=[N+]4[B-](F)(F)n4c(C)cc(C)c43)c(=O)cc1[C@@H](NC(C)=O)CC2 , what is its reported SI (selectivity index)?
>7.07

For COc1cc2c(c(OC)c1OC)-c1ccc(OC)c(=O)cc1[C@@H](NC(=O)CCCCCCCCCCC1=C3C(C)=CC(C)=[N+]3[B-](F)(F)n3c(C)cc(C)c31)CC2 , what is its reported SI (selectivity index)?
>1.66

For COc1cc2c(c(OC)c1OC)-c1ccc(OC)c(=O)cc1[C@@H](n1cc(CCCC3=C4C(C)=CC(C)=[N+]4[B-](F)(F)n4c(C)cc(C)c43)[n+](C)n1)CC2 , what is its reported SI (selectivity index)?
>38.40

For COc1cc2c(c(OC)c1OC)-c1ccc(OC)c(=O)cc1[C@@H](n1cc(CCCCCCCCC3=C4C(C)=CC(C)=[N+]4[B-](F)(F)n4c(C)cc(C)c43)nn1)CC2 , what is its reported SI (selectivity index)?
>74.18

For COc1cc2c(c(OC)c1OC)-c1ccc(OC)c(=O)cc1[C@@H](NC(=O)CCCC[N+](C)(C)CCCCC1=C3C(C)=CC(C)=[N+]3[B-](F)(F)n3c(C)cc(C)c31)CC2 , what is its reported SI (selectivity index)?
>1.83

###

I'd appreciate it if you could supply G2/M values for the items below.
Test system: CCRF-CEM lymphoblasts
EXPERIMENTAL_DETAILS: FACS analysis of cell cycle, apoptosis, mitosis and polyploidy
TEST_CONTEXT: 1×IC50, 24 h
Express your answer in %, writing the number without its unit.

Request body: readout G2/M, system CCRF-CEM lymphoblasts, query COc1cc2c(c(OC)c1OC)-c1ccc(OC)c(=O)cc1[C@@H](n1cc(CCCCCCCCC3=C4C(C)=CC(C)=[N+]4[B-](F)(F)n4c(C)cc(C)c43)nn1)CC2 [CB5] . Return the value.
85.47

Request body: readout G2/M, system CCRF-CEM lymphoblasts, query COc1cc(C2=C3C(C)=CC(C)=[N+]3[B-](F)(F)n3c(C)cc(C)c32)ccc1OCc1cn([C@H]2CCc3cc(OC)c(OC)c(OC)c3-c3ccc(OC)c(=O)cc32)nn1 [CB6] . Return the value.
55.58

Request body: readout G2/M, system CCRF-CEM lymphoblasts, query COc1cc2c(c(OC)c1OC)-c1ccc(N(C)CCCCC3=C4C(C)=CC(C)=[N+]4[B-](F)(F)n4c(C)cc(C)c43)c(=O)cc1[C@@H](NC(C)=O)CC2 [CB11] . Return the value.
30.38

Request body: readout G2/M, system CCRF-CEM lymphoblasts, query COc1cc(C2=C3C(C)=CC(C)=[N+]3[B-](F)(F)n3c(C)cc(C)c32)ccc1OCc1cn([C@H]2CCc3cc(OC)c(OC)c(OC)c3-c3ccc(OC)c(=O)cc32)n[n+]1C [CB9] . Return the value.
60.07

Request body: readout G2/M, system CCRF-CEM lymphoblasts, query COc1cc2c(c(OC)c1OC)-c1ccc(OC)c(=O)cc1[C@@H](n1cc(CCCC3=C4C(C)=CC(C)=[N+]4[B-](F)(F)n4c(C)cc(C)c43)nn1)CC2 [CB4] . Return the value.
27.75

Request body: readout G2/M, system CCRF-CEM lymphoblasts, query COc1cc2c(c(OC)c1OC)-c1ccc(OC)c(=O)cc1[C@@H](NC(C)=O)CC2 [Col, colchicine, reference compound] . Return the value.
80.55

Request body: readout G2/M, system CCRF-CEM lymphoblasts, query COc1cc2c(c(OC)c1OC)-c1ccc(N(C)C(=O)CCC3=C4C(C)=CC(C)=[N+]4[B-](F)(F)n4c(C)cc(C)c43)c(=O)cc1[C@@H](NC(C)=O)CC2 [CB12] . Return the value.
26.62

Request body: readout G2/M, system CCRF-CEM lymphoblasts, query COc1cc2c(c(OC)c1OC)-c1ccc(OC)c(=O)cc1[C@@H](n1cc(CCCC3=C4C(C)=CC(C)=[N+]4[B-](F)(F)n4c(C)cc(C)c43)[n+](C)n1)CC2 [CB7] . Return the value.
45.89

Request body: readout G2/M, system CCRF-CEM lymphoblasts, query COc1cc2c(c(OC)c1OC)-c1ccc(OC)c(=O)cc1[C@@H](n1cc(CCCCCCCCC3=C4C(C)=CC(C)=[N+]4[B-](F)(F)n4c(C)cc(C)c43)[n+](C)n1)CC2 [CB8] . Return the value.
80.01

Request body: readout G2/M, system CCRF-CEM lymphoblasts, query COc1cc2c(c(OC)c1OC)-c1ccc(OC)c(=O)cc1[C@@H](NC(=O)CCC1=C3C(C)=CC(C)=[N+]3[B-](F)(F)n3c(C)cc(C)c31)CC2 [CB1] . Return the value.
38.6

Request body: readout G2/M, system CCRF-CEM lymphoblasts, query COc1cc2c(c(OC)c1OC)-c1ccc(NCCCCC3=C4C(C)=CC(C)=[N+]4[B-](F)(F)n4c(C)cc(C)c43)c(=O)cc1[C@@H](NC(C)=O)CC2 [CB10] . Return the value.
26.65

Request body: readout G2/M, system CCRF-CEM lymphoblasts, query COc1cc2c(c(OC)c1OC)-c1ccc(OC)c(=O)cc1[C@@H](NC(=O)CCCC[N+](C)(C)CCCCC1=C3C(C)=CC(C)=[N+]3[B-](F)(F)n3c(C)cc(C)c31)CC2 [CB3] . Return the value.
79.08

Request body: readout G2/M, system CCRF-CEM lymphoblasts, query COc1cc2c(c(OC)c1OC)-c1ccc(OC)c(=O)cc1[C@@H](NC(=O)CCCCCCCCCCC1=C3C(C)=CC(C)=[N+]3[B-](F)(F)n3c(C)cc(C)c31)CC2 [CB2] . Return the value.
89.19

These entries and their values trace back to paper PMC12261228.
